Reference source: patent US9790221B2

Target: UniProt:Q9NWZ3
Sequence (Q9NWZ3 whole entry): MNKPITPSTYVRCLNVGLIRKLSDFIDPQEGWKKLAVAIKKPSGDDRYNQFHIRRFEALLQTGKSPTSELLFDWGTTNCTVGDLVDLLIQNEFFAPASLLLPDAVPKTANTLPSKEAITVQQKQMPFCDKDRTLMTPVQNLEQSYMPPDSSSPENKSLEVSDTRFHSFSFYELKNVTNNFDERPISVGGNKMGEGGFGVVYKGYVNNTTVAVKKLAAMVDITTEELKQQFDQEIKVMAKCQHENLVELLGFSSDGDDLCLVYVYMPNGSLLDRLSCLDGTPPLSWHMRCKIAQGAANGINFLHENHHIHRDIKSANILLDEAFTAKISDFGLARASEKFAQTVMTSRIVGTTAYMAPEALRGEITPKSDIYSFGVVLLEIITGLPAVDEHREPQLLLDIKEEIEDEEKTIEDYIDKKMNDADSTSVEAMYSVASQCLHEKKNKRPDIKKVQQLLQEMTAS
Assay: IRAK4 enzymatic assay
Format: biochemical
METRIC NAME: IC50

CC(Nc1nc(-c2cccc(-c3cnn(C)c3)c2)ncc1-c1cnn(C)c1)C1CCN(S(C)(=O)=O)CC1 (stereo not drawn)
0.1 to 1 µM
CC(=O)N[C@@H]1CCN(c2nc(-c3cccc(-c4cnn(C)c4)c3)ncc2-c2cnn(C)c2)C1
1 to 5 µM
Cn1cc(-c2cccc(-c3ncc(-c4cnn(C)c4)c(N[C@H]4CC[C@H](NS(C)(=O)=O)C4)n3)c2)cn1
< 0.1 µM
Cn1cc(-c2cccc(-c3ncc(-c4cnn(C)c4)c(N[C@H]4CC[C@@H](O)CC4)n3)c2)cn1
< 0.1 µM
Cn1cc(-c2cccc(-c3ncc(-c4cnn(C)c4)c(NC45CCC(N)(C4)C5)n3)c2)cn1
< 0.1 µM

Any idea what its IC50 is? The compound is Cn1cc(-c2cccc(-c3ncc(-c4cnn(C)c4)c(NC[C@H]4CCN(S(C)(=O)=O)C4)n3)c2)cn1
< 0.1 µM

Any idea what its IC50 is? The compound is Cn1cc(-c2cccc(-c3ncc(-c4cnn(C)c4)c(N[C@@H]4CNC[C@@H](F)C4)n3)c2)cn1
0.1 to 1 µM

Any idea what its IC50 is? The compound is Cn1cc(-c2cccc(-c3ncc(-c4ccn(C)n4)c(NC4CCCC4)n3)c2)cn1
1 to 5 µM

Any idea what its IC50 is? The compound is Cn1cc(-c2cccc(-c3ncc(-c4ccn(C)n4)c(NCCCN4CCCC4=O)n3)c2)cn1
1 to 5 µM

Any idea what its IC50 is? The compound is Cn1cc(-c2cccc(-c3ncc(-c4ccn(C)n4)c(N[C@@H]4CC[C@H](N)C4)n3)c2)cn1 (racemic)
0.1 to 1 µM
